biological target: human norepinephrine transporter (Homo sapiens); construct: expressed in transfected cells; host or cells: HEK cells (HEK-hNET); assay: biochemical; format: binding; details: Binding to NE cloned transporter, [I125]RTI-55 Ki
Sequence (P23975 whole entry): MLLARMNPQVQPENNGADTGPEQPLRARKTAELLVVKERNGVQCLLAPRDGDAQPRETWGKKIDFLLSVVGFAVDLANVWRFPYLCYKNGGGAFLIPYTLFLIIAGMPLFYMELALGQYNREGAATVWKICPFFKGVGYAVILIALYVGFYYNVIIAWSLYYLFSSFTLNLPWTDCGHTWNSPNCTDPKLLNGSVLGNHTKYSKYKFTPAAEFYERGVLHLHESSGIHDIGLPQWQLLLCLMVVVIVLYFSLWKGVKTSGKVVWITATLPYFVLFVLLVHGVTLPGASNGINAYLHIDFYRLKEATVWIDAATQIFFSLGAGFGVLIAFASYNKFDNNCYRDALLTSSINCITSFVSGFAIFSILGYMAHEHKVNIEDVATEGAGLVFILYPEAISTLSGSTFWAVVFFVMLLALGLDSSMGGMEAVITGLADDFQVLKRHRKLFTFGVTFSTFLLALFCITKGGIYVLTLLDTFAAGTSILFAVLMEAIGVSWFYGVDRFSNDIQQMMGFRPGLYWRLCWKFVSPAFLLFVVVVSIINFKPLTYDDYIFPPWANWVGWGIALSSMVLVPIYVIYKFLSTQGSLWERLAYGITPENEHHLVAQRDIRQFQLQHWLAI
OBSERVATION_TYPE: Ki (nM)
Reply numerically in nM, unit not repeated.

Enquiry: Query: Ki; subject: CN(C)C1CC(c2ccc(Cl)c(Cl)c2)c2ccccc21 (stereo not shown)
Return: 370

----------
target: human dopamine transporter (Homo sapiens); test: [3H]dopamine uptake by C6-hDAT cells; conditions: ratio
Sequence (Q01959 whole entry): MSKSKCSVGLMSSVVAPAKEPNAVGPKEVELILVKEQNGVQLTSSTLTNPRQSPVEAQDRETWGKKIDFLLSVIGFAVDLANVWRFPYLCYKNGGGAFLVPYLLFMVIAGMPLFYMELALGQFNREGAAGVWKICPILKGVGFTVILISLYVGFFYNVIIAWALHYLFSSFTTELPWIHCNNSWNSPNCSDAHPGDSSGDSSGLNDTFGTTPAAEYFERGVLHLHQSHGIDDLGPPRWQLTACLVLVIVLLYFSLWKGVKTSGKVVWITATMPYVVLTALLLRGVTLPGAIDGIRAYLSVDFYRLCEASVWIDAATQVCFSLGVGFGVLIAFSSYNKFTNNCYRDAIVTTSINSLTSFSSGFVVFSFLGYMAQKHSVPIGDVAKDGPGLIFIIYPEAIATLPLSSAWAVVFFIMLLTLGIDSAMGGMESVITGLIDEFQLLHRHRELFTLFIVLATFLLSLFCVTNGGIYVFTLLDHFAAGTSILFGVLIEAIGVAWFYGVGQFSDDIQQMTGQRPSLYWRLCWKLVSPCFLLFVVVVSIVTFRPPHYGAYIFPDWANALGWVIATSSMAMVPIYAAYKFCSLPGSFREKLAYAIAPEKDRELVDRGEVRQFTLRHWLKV
OBSERVATION_TYPE: DA uptake/binding
Answer with a number only.

Below, each entry is followed by its recorded DA uptake/binding result.
{"columns": ["COMPOUND", "VALUE_REPORTED"],
 "data": [
  ["CN(C1CC(c2ccc(Cl)c(Cl)c2)c2ccccc21)C(C)(C)C (centres unmarked)", 3.0],
  ["CN(Cc1ccccc1)C1CC(c2ccc(Cl)c(Cl)c2)c2ccccc21 (centres unmarked)", 4.6]
]}

Next compound, DA uptake/binding to be filled in.
Enquiry: Query: DA uptake/binding; subject: CN(C)C1CC(c2ccc(Cl)c(Cl)c2)c2ccccc21 (centres unmarked)
Return: 6.6

----------
IC50 reference
target: human serotonin transporter (Homo sapiens, UniProt P31645); assay: [3H]serotonin uptake by HEK-hSERT cells; conditions: Inhibition of 5HT uptake, IC50, HEK-hSERT cells
Sequence (P31645 whole entry): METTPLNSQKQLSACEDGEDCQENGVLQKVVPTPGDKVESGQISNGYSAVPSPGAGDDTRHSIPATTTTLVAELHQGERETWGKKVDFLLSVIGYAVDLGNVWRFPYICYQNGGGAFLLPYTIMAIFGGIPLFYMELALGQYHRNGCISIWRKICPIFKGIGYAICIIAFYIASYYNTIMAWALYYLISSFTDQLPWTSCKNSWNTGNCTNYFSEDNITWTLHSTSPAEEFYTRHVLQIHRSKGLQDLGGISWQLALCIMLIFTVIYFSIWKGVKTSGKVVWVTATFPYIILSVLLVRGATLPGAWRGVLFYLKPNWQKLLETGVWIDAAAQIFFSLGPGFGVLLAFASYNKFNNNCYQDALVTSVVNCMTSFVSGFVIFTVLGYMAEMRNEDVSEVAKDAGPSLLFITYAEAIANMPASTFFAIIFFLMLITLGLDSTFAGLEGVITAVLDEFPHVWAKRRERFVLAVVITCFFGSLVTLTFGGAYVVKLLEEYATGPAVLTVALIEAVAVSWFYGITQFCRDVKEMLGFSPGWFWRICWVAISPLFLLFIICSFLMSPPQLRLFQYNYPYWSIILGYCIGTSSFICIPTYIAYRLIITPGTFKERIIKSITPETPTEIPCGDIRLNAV
Reply numerically in µM, unit not repeated.

Below, each entry is followed by its recorded IC50 result.
{"columns": ["MOLECULE", "TEST_TARGET", "VALUE_REPORTED"],
 "data": [
  ["CN(C)C1CC(c2ccc(Cl)c(Cl)c2)c2ccccc21 (stereo not shown)", "human serotonin transporter (Homo sapiens, UniProt P31645)", 0.0067],
  ["CCNC1CC(c2ccc(Cl)c(Cl)c2)c2ccccc21 (stereo not shown)", "human serotonin transporter (Homo sapiens, UniProt P31645)", 0.013],
  ["CC(C)(C)NC1CC(c2ccc(Cl)c(Cl)c2)c2ccccc21 (stereo not shown)", "human serotonin transporter (Homo sapiens, UniProt P31645)", 3.1],
  ["CCCNC1CC(c2ccc(Cl)c(Cl)c2)c2ccccc21 (stereo not shown)", "human serotonin transporter (Homo sapiens, UniProt P31645)", 0.24],
  ["CCN(C)C1CC(c2ccc(Cl)c(Cl)c2)c2ccccc21 (stereo not shown)", "human serotonin transporter (Homo sapiens, UniProt P31645)", 0.024]
]}

Next molecule, IC50 to be filled in.
Enquiry: Query: IC50; subject: CN(Cc1ccccc1)C1CC(c2ccc(Cl)c(Cl)c2)c2ccccc21 (stereo not shown)
Return: 3.7

----------
target: human serotonin transporter (Homo sapiens, UniProt P31645); construct: expressed in transfected cells; host or cells: HEK cells (HEK-hSERT); assay: [3H]serotonin uptake by HEK-hSERT cells; type: cell-based; conditions: selectivity ratio
OBSERVATION_TYPE: 5HT/DA uptake
Answer with a number only.

Below, each entry is followed by its recorded 5HT/DA uptake result.
{"columns": ["COMPOUND", "5HT/DA uptake"],
 "data": [
  ["CCN(C)C1CC(c2ccc(Cl)c(Cl)c2)c2ccccc21 (stereo not drawn)", 0.10],
  ["CC(C)(C)NC1CC(c2ccc(Cl)c(Cl)c2)c2ccccc21 (stereo not drawn)", 8.4],
  ["CCNC1CC(c2ccc(Cl)c(Cl)c2)c2ccccc21 (stereo not drawn)", 0.21]
]}

Enquiry: Query: 5HT/DA uptake; subject: CN(C)C1CC(c2ccc(Cl)c(Cl)c2)c2ccccc21 (stereo not drawn)
Return: 0.035

Enquiry: Query: 5HT/DA uptake; subject: CCCNC1CC(c2ccc(Cl)c(Cl)c2)c2ccccc21 (stereo not drawn)
Return: 4.7

Enquiry: Query: 5HT/DA uptake; subject: CN(Cc1ccccc1)C1CC(c2ccc(Cl)c(Cl)c2)c2ccccc21 (stereo not drawn)
Return: 6.7
